Quick list: GI50 per entry.
# Test system: SK-MEL-2
# protocol: NCI tumour cell line growth inhibition, 48 h
Calls of active or inactive are those of the source. Cut-off read from the data, not from the text of the source: active = GI50 up to about 1.1 µM and inactive = higher.
property: GI50

1) O=C(c1ccco1)N(C(=O)N1CCCCC1)c1ccccc1    > 100 µM (inactive)
2) COc1ccc(C2CC(=O)CC(c3ccc(OC)cc3)C23C(=O)NC(=O)NC3=O)cc1 (stereo unspecified)    18.5 µM (inactive)
3) O=C(/C=C/c1ccc(O)c(O)c1)NCCc1ccc(-c2ccccc2)cc1    > 100 µM (inactive)
4) O=C1NC2CCCCC2N=C1CC(=O)c1ccc(Br)cc1 (stereo unspecified)    70.6 µM (inactive)
5) O=[N+]([O-])C(=C(Sc1ccccc1)Sc1ccccc1)C(Cl)=C(Cl)Cl    2.26 µM (inactive)
6) COc1ccc(CCCNC(=O)c2cc(OC)c(OC)cc2CCO)cc1OC    > 100 µM (inactive)
7) Cc1cccc(C)c1NC(=O)CCC(=O)CC(=O)C(C)C    > 100 µM (inactive)
8) c1ccc2sc(SCSc3nc4ccccc4s3)nc2c1    > 100 µM (inactive)
9) Cc1c(C)c2cc3c(=O)c(CCl)coc3c(C)c2oc1=O    > 100 µM (inactive)
10) C[N+](C)(C)CC(=O)N/N=C(\CCC(=O)NCCc1ccccc1)CC(=O)c1ccccc1    > 100 µM (inactive)
11) O=c1[nH]c(=O)n([C@@H]2C[C@H](CO)[C@H](O)C2)cc1/C=C/Br    > 100 µM (inactive)

---

# System: OVCAR-8
# protocol: NCI tumour cell line growth inhibition, 48 h
Activity calls are given as the source filed them. Rule as the data show it: active = GI50 up to about 1.1 µM and inactive = higher.
Outcome codes: active, inactive

1. CCOC(=O)C1(CO)CSCCSC1    inactive
2. O=c1ccn([C@@H]2C[C@@H]2CO)c(=O)[nH]1    inactive
3. COc1cc2c(cc1OC)C1=CCC(c3ccccc3)[N+]1(C)CC2 (stereo not given)    inactive
4. Cc1cn(S(=O)(=O)c2ccccc2)c2c(OCc3ccccc3)cc(NC(=O)c3cc4cc([N+](=O)[O-])ccc4s3)cc12    inactive
5. CCc1c(Cc2cc(C)cc(C)c2)n2c(nc1=O)SCC2CBr (stereo not given)    inactive
6. C[N+]12CCCCC1C(COc1cccc3cccnc13)CCC2 (stereo not given)    inactive
7. O=S(=O)(CF)OCCCCOS(=O)(=O)CF    inactive
8. COc1cc2c(c(OC)c1OC)-c1ccc(SC)c(=O)cc1[C@@H](NCc1ccc(C#N)cc1)CC2    active
9. CC(=O)OCC1OC(N2C(=O)C(=O)c3ccccc32)C(OC(C)=O)C(OC(C)=O)C1OC(C)=O (stereo not given)    inactive
10. Cn1c(=O)n2n(c1=O)[C@@H](c1ccccc1)[C@H]2c1ccccc1    inactive

---

# Test system: HCC 2998
# protocol: NCI tumour cell line growth inhibition, 48 h
The source made the active and inactive calls. Cut-off read from the data, not from the text of the source: active = GI50 up to about 1.1 µM and inactive = higher.
property: GI50

1) COC1CCC(OS(C)(=O)=O)C(CO)O1 (stereo unspecified)    > 100 µM (inactive)
2) CCOc1ccc2ccc3cccnc3c2n1    51.6 µM (inactive)
3) O/N=C1/CC2(N3CCOCC3)C3CC/C(=N\O)C2CC1(Cc1ccccc1)C3 (stereo unspecified)    > 100 µM (inactive)
4) CCN(CC)/[N+]([O-])=N/OCOC    > 100 µM (inactive)
5) CC(C)NC(=O)OCCN=c1c2ccccc2ccc2ccccc12    40 µM (inactive)
6) CCCCCCCCCCC1OC([C@@H](O)CC[C@H](O)C2CC[C@@H](CCCCCCCC(O)CC3=CC(C)OC3=O)O2)CCC1O (stereo partly specified)    8 µM (inactive)
7) Cc1cccc(C)c1NC(=O)CCC(=O)CC(=O)C(C)C    > 100 µM (inactive)
8) c1ccc(CSCCC(SCc2ccccc2)SCc2ccccc2)cc1    > 10 µM (inactive)
9) O=C1OC(c2ccccc2)=N/C1=C\c1cccc(F)c1    72.3 µM (inactive)
10) Cc1ccc(S(=O)(=O)N2CCN(CCO)CCN(S(=O)(=O)c3ccc(C)cc3)CCN(CCO)CC2)cc1    15.4 µM (inactive)
11) O=C1C(Br)=CC2(C=C1Br)CCNC1=C2C(=O)c2cccnc2C1=O    18 µM (inactive)
